Biological target: Cdk5/p25 (Homo sapiens)
Experiment: Cyclin-Dependent Kinase 5 High Throughput Screening (cdk5-HTS) Assay
Assay type: biochemical
Conditions: high throughput screen
recorded_endpoint: IC50 (nM)

Use the examples below as a reference point.
- compound: "COc1ccc(Nc2ncc3ccc(=O)n(C4CCCC4)c3n2)cc1OC [Example 541]"
  IC50, nM: 13.5
- compound: "N#Cc1ccc(Nc2ncc3ccc(=O)n(CC(F)(F)F)c3n2)cc1C#N [Example 603]"
  IC50, nM: 1200
- compound: "CCCn1c(=O)ccc2cnc(Nc3cccc(S(N)(=O)=O)c3)nc21 [Example 348]"
  IC50, nM: 13
- compound: "CC(=O)Nc1cc(Nc2ncc3ccc(=O)n(CC(F)(F)F)c3n2)ccc1C#N [Example 604]"
  IC50, nM: 2000

[I] CCC(CC)n1c(=O)ccc2cnc(Nc3ccc(OC(F)(F)F)cc3)nc21 [Example 515]
[II] Cc1ccc(Nc2ncc3ccc(=O)n(C(C)C)c3n2)cc1I [Example 427]
Problem: Hi! Which is lower in terms of IC50, the first one I or the second one II ? State the label of the item chosen.
Result: II
(II: 21 nM, I: 71 nM)

###

Biological target: cdk2/cyclinE (Homo sapiens, UniProt P24941)
Test: Cyclin-Dependent Kinase Assay cdk2/cyclinE
Conditions: cdk2/E IC50
recorded_endpoint: IC50 (nM)

- molecule: "CCCn1c(=O)ccc2cnc(Nc3cccc(S(N)(=O)=O)c3)nc21"
  study_target: "cdk2/cyclinE (Homo sapiens, UniProt P24941)"
  recorded_endpoint: "IC50"
  measured_result: 49
- molecule: "CCCn1c(=O)ccc2cnc(Nc3ccc(Br)c(C)c3)nc21"
  study_target: "cdk2/cyclinE (Homo sapiens, UniProt P24941)"
  recorded_endpoint: "IC50"
  measured_result: 990
- molecule: "CCCn1c(=O)ccc2cnc(Nc3ccc(OC)cc3)nc21"
  study_target: "cdk2/cyclinE (Homo sapiens, UniProt P24941)"
  recorded_endpoint: "IC50"
  measured_result: 275

[I] CCCn1c(=O)ccc2cnc(Nc3ccc(O)c(Cl)c3)nc21
[II] O=c1ccc2cnc(Nc3ccc(Br)c(C(F)(F)F)c3)nc2n1CC1CC1
Problem: So which one has the bigger IC50 here, I or II ? State the label of the item chosen.
Result: II
(II: 190 nM, I: 25 nM)

###

Target: cdk4/D (Homo sapiens, UniProt P11802)
Sequence (P11802 whole entry): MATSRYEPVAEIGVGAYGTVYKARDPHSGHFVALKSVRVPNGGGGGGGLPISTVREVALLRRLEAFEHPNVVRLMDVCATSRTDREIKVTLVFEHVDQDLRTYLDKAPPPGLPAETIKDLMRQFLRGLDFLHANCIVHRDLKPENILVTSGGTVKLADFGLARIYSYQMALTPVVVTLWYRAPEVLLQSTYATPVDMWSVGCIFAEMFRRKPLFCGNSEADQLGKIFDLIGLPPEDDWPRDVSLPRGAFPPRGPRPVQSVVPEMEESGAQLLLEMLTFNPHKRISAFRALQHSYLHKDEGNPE
Sequence (P24385 whole entry, further chain): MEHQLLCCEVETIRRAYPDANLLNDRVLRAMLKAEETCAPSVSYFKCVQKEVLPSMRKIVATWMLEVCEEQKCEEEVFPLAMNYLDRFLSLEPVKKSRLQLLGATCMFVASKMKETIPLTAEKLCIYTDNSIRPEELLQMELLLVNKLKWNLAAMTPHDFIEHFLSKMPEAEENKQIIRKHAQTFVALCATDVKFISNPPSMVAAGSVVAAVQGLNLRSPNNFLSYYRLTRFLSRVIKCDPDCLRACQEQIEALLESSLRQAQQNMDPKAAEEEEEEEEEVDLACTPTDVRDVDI
Test: Cyclin-Dependent Kinase 4 (cdk4) Assay
Format: biochemical
Conditions: Table 1; read-out: cdk4/D IC50
pIC50: −log10 of the molar value.
recorded_endpoint: pIC50

Use the examples below as a reference point.
- molecule: "O=c1ccc2cnc(Nc3ccc(N4CCC(O)CC4)cc3)nc2n1C1CCCCC1 [Example 215]"
  measured_result: 8.12
- molecule: "O=c1ccc2cnc(Nc3ccc(N4CCCCC4)cc3)nc2n1[C@@H]1C[C@H]2CC[C@@H]1C2 (relative stereo) [Example 181]"
  measured_result: 7.24
- molecule: "CN(C)c1ccc(Nc2ncc3ccc(=O)n(CCCOCc4ccccc4)c3n2)cc1 [Example 138]"
  measured_result: 6.29

[P] O=c1ccc2cnc(Nc3ccc(-n4cccc4)cc3)nc2n1C1CCCC1 [Example 190]
[Q] O=c1ccc2cnc(Nc3ccc(N4CCCC(O)C4)cc3)nc2n1C1CC2CCC1C2 (stereo not shown) [Example 254]
Problem: Hi! Which is lower in terms of pIC50, the first one P or the second one Q ? State the label of the item chosen.
Result: P
